test: Solubility in methyl ethyl ketone
Type: physicochemical
Reported Solubility in methyl ethyl ketone values for a set of compounds
quantityKind: Solubility in methyl ethyl ketone

[
  {
    "lineNotation": "O=C1NS(=O)(=O)Oc2ccccc21",
    "result": ">10 wt %"
  },
  {
    "lineNotation": "CN1C(=O)NS(=O)(=O)c2ccccc21",
    "result": ">2 wt %"
  },
  {
    "lineNotation": "CC1=CC(=O)NS(=O)(=O)O1",
    "result": ">10 wt %"
  },
  {
    "lineNotation": "O=C1CS(=O)(=O)OC2=C1CCCC2",
    "result": "5.5 wt %"
  }
]
